endpoint: glass transition temperature (°C)

compound	endpoint	u	observedResult
*CC(*)OC(=O)CCC (repeat unit) [Poly(vinyl butyrate) ]	glass transition temperature	°C	2
*c1nc(C(F)(F)F)nc(C(F)(OC(F)(F)C(F)(F)C(F)(F)C(F)(F)C(F)(F)C(F)(F)OC(*)(F)C(F)(F)F)C(F)(F)F)n1 (repeat unit)	glass transition temperature	°C	-13.6
*CC(*)c1ccccc1CC (repeat unit)	glass transition temperature	°C	102
*CC(*)C(=O)OC(C)CCCCC (repeat unit) [Poly(2-heptyl acrylate) ]	glass transition temperature	°C	-39

----------
hey, just use yes if measured glass transition temperature is less than 200 °C, otherwise no

molecule	classification
*CC(*)c1ccc(CCCCCCCCCCCCCCCCCC)cc1 (repeat unit)	yes
*Oc1ccc(S(=O)(=O)c2ccc(Oc3ccc(NC(=O)c4ccc(Oc5ccc(C(C)(C)c6ccc(C(C)(C)c7ccc(Oc8ccc(C(=O)Nc9ccc(*)cc9)cc8)cc7)cc6)cc5)cc4)cc3)cc2)cc1 (repeat unit)	yes
*Oc1ccc(Oc2ccc(NC(=O)c3ccc(-c4ccc(C(=O)Nc5ccc(*)cc5)c(C)c4)cc3C)cc2)cc1 (repeat unit)	no
*c1ccc(-c2nc3cc(Oc4ccc(NC(=O)CN5C(=O)c6ccc(C(c7ccc8c(c7)C(=O)N(CC(=O)Nc7ccc(Oc9ccc%10nc(-c%11ccccc%11)c(-c%11ccc(N%12C(=O)c%13ccc%14c%15c(ccc(c%13%15)C%12=O)C(=O)N(*)C%14=O)cc%11)nc%10c9)cc7)C8=O)(C(F)(F)F)C(F)(F)F)cc6C5=O)cc4)ccc3nc2-c2ccccc2)cc1 (repeat unit)	no
*CCCCCCNC(=O)c1ccc(C(C)(CC)c2ccc(C(=O)N*)cc2)cc1 (repeat unit)	yes
*CC(*)C(=O)OCCOCC(F)(F)C(F)(F)C(F)(F)F (repeat unit)	yes
*CCCCCCCCOc1c(OC)cc(/C=C/c2ccc(/C=C/c3ccc(/C=C/c4cc(OC)c(O*)c(OC)c4)cc3)cc2)cc1OC (repeat unit)	yes
*c1ccc(Oc2ccc(C(c3ccc(Oc4ccc(-c5nnc(*)n5-c5ccc(C)cc5)cc4)cc3)(C(F)(F)F)C(F)(F)F)cc2)cc1 (repeat unit)	no
*CCOC(=O)CCC(=O)OCCOC(=O)c1ccc(C(=O)O*)cc1 (repeat unit)	yes
*Oc1ccc(NC(=O)c2cc(C(=O)Nc3ccc(*)cc3)cc(S(=O)(=O)c3ccccc3)c2)cc1 (repeat unit)	no
*/C=C/C(C(=O)OCC)C(*)C(=O)OCC (repeat unit)	yes
*c1ccc(Oc2cccc(Oc3ccc(N4C(=O)c5ccc(Oc6ccc(Sc7ccc(Oc8ccc9c(c8)C(=O)N(*)C9=O)cc7)cc6)cc5C4=O)cc3)c2)cc1 (repeat unit)	yes
*c1cc(-c2sc(-c3cc(CCCCCCCCCCCCCC)c(*)s3)cc2CCCCCCCCCCCCCC)c2cccccc1-2 (repeat unit)	yes

----------
endpoint: glass transition temperature (°C)

molecule	endpoint	observedResult
*Oc1ccc(S(=O)(=O)c2ccc(Oc3c(C)cc(C(c4cc(C)c(*)c(C)c4)(C(F)(F)F)C(F)(F)F)cc3C)c(Br)c2)cc1Br (repeat unit)	glass transition temperature	230.80
*CCCCCCc1ccc(-c2c(-c3ccccc3)cc(-c3ccc(-c4cc(-c5ccccc5)c(-c5ccc(*)cc5)c(-c5ccccc5)c4-c4ccccc4)cc3)c(-c3ccccc3)c2-c2ccccc2)cc1 (repeat unit)	glass transition temperature	250.00
*CC(C)C(=O)O* (repeat unit)	glass transition temperature	-25.00
*c1cc(C(=O)OCCCC)cc(N2C(=O)CC(C3Cc4ccccc4C4C(=O)N(*)C(=O)C43)C2=O)c1 (repeat unit)	glass transition temperature	219.00
*Oc1ccc(N[Se]Nc2ccc(*)cc2)cc1 (repeat unit)	glass transition temperature	55.00
*C(=O)c1ccc2c(c1)C(=O)N(c1ccccc1C(=O)c1ccccc1N1C(=O)c3ccc(*)cc3C1=O)C2=O (repeat unit)	glass transition temperature	289.00
*c1ccc(Oc2ccc(N3C(=O)c4cccc(Oc5ccc(Sc6ccc(Oc7cccc8c7C(=O)N(*)C8=O)cc6)cc5)c4C3=O)cc2)cc1 (repeat unit)	glass transition temperature	234.00

----------
Assign label 1 to entries whose glass transition temperature meets or exceeds 100 °C; assign label 0 to the rest.

molecule	classification
*CCCCCCOC(=O)OCCCCCCN1C(=O)c2ccc(-c3ccc(-c4ccc5c(c4)C(=O)N(*)C5=O)cc3)cc2C1=O (repeat unit)	label 0
*C[Si](*)(C)C (repeat unit)	label 0
*CC(=O)Nc1ccc(C2(c3ccc(NC(=O)c4ccc5c(c4)C(=O)N(*)C5=O)cc3)c3ccccc3-c3ccccc32)cc1 (repeat unit)	label 1
*CC(*)(C)C(=O)OCCn1c2ccccc2c2cc(/N=N/c3ccc([N+](=O)[O-])cc3[N+](=O)[O-])ccc21 (repeat unit)	label 1
*CC(*)c1ccc(C(=O)N2CCCCC2)cc1 (repeat unit)	label 1
*CC(*)C(=O)NC(C)(C)CS(=O)(=O)O (repeat unit)	label 0
*C(=O)Oc1ccc2ccc(OC(=O)c3ccc4c(c3)C(=O)N(c3ccc(Oc5ccc(N6C(=O)c7ccc(*)cc7C6=O)cc5)cc3)C4=O)cc2c1 (repeat unit)	label 1
*Oc1ccc(C(C)(C)c2ccc(OC(=O)C3CCC(C(*)=O)CC3)cc2)cc1 (repeat unit)	label 1

----------
compound	glass transition temperature [°C]
*c1ccc(Oc2ccc(-c3ccc(Oc4ccc(N5C(=O)c6ccc(Oc7ccc8c(c7)C(=O)N(*)C8=O)cc6C5=O)cc4)cc3)cc2)cc1 (repeat unit)	245.00
*Oc1ccc(S(=O)(=O)c2ccc(Oc3ccc(C(=O)c4cccc(C(=O)c5ccc(*)cc5)c4)cc3)cc2)cc1 (repeat unit)	178.00
*c1ccc(-c2nc3cc(Oc4ccc(NC(=O)c5ccc6c(c5)C(=O)N(c5ccc(C(c7ccc(N8C(=O)c9ccc(C(=O)Nc%10ccc(Oc%11ccc%12nc(-c%13ccccc%13)c(*)nc%12c%11)cc%10)cc9C8=O)cc7)(C(F)(F)F)C(F)(F)F)cc5)C6=O)cc4)ccc3nc2-c2ccccc2)cc1 (repeat unit)	293.00
*Oc1ccc(S(=O)(=O)c2ccc(Oc3ccc(C(C)(C)c4ccc(*)cc4)cc3)c([N+](=O)[O-])c2)cc1[N+](=O)[O-] (repeat unit)	206.00
*Oc1cccc(NC(=O)CCCCCCCCCC(=O)Nc2ccc(*)cc2)c1 (repeat unit)	110.00
*CC1(*)CC(=O)N(c2ccccc2)C1=O (repeat unit)	236.00
*CC(*)(F)F (repeat unit) [Poly(vinylidene fluoride)]	-32.77
*CC(*)C(=O)Oc1ccc(C)cc1 (repeat unit)	42.50
*c1ccc(Oc2ccc3ccccc3c2-c2c(Oc3ccc(N4C(=O)c5ccc(NC(=O)Nc6ccc(Oc7ccccc7-c7ccccc7Oc7ccc(NC(=O)Nc8ccc9c(c8)C(=O)N(*)C9=O)cc7)cc6)cc5C4=O)cc3)ccc3ccccc23)cc1 (repeat unit)	285.00
*Oc1cc(C)cc(OC(=O)c2cccc(C(*)=O)c2)c1 (repeat unit)	163.00
*C(=O)NCCN(CCNC(=O)c1ccc2c(c1)C(=O)N(c1ccc(Oc3ccc(N4C(=O)c5ccc(*)cc5C4=O)cc3)cc1)C2=O)c1ccc(/C=C/c2ccc([N+](=O)[O-])cc2)cc1 (repeat unit)	224.00
*c1ccc(N2C(=O)c3ccc(C(c4ccc5c(c4)C(=O)N(c4ccc(N6C(=O)c7ccc(-c8ccc9c(c8)C(=O)N(*)C9=O)cc7C6=O)cc4)C5=O)(C(F)(F)F)C(F)(F)F)cc3C2=O)cc1 (repeat unit)	342.00
*/C=C/CCCC(Cl)CCC* (repeat unit)	-63.00

----------
glass transition temperature values by entry

compound	glass transition temperature
*CC(CC(C)C)S(*)(=O)=O (repeat unit)	23.00 °C
*O[Si](*)(C)CCCOc1ccc(C(=O)Oc2ccc(-c3ccc(OC(=O)c4cc(OCCCCC)c(OCCCCC)c(OCCCCC)c4)cc3)cc2)cc1 (repeat unit)	49.00 °C
*c1ccc(Oc2ccc(-c3nc4cc(-c5ccc6nc(*)c(-c7ccccc7)nc6c5)ccc4nc3-c3ccccc3)cc2)cc1 (repeat unit)	292.50 °C
*C(=O)Nc1ccc(C(=O)c2ccc(NC(=O)c3ccc4c(c3)C(=O)N(c3ccc(NC(=O)Nc5ccc(N6C(=O)c7ccc(*)cc7C6=O)cc5)cc3)C4=O)cc2)cc1 (repeat unit)	212.00 °C
*c1ccc(Oc2ccc(C(c3ccc(Oc4ccc(N5C(=O)c6ccc7c8c(ccc(c68)C5=O)C(=O)N(*)C7=O)cc4)c(S(=O)(=O)O)c3)(C(F)(F)F)C(F)(F)F)cc2S(=O)(=O)O)cc1 (repeat unit)	270.00 °C
*CCOC(=O)CCSCCC(=O)O* (repeat unit)	-43.00 °C
*CC(*)(C)C(=O)OCCCc1ccc(/N=N/c2ccc(OC(F)(F)F)cc2)cc1 (repeat unit)	211.50 °C

----------
compound	glass transition temperature
*CCCCCCCCOC(=O)NNC(=O)CCCCCCCCC(=O)NNC(=O)O* (repeat unit)	38.00 °C
*O[Si](*)(C)CC[Si](OCCOC)(OCCOC)OCCOC (repeat unit)	28.90 °C
*c1ccc(Oc2ccc(-c3c(-c4ccccc4)c(-c4ccc(-c5nc6ccccc6c(*)c5-c5ccccc5)cc4)nc4ccccc34)cc2)cc1 (repeat unit)	273.00 °C
*CC(*)C(=O)OCCOc1ccc(C(=O)Oc2ccc(OC(=O)c3ccc(OCCCC)cc3)cc2)cc1 (repeat unit)	45.00 °C

Reference for the values: the PolyMetriX glass transition set
